Each recorded value in this set is attributed to patent US20020111274A1.

System: GALAP Galium
Experiment: Preemergence herbicidal evaluation, GALAP
Assay type: in vivo, Galium aparine
Set-up: scale not given here
Details: preemergence, rate 0.125 kg/ha
Source text: The preemergence herbicidal activity of the test compounds of the present invention is exemplified by the following tests in which the seeds of a variety of monocotyledonous and dicotyledonous plants are separately mixed with potting soil and planted on top of approximately one inch of soil in separate pint cups. […] The treated cups are then placed on greenhouse benches, watered and cared for in accordance with conventional greenhouse procedures. […]
Mark true for reported GALAP herbicidal rating of 1 or greater; mark false for anything smaller.

IN: hey, is GALAP herbicidal rating for this one >= 1? `Cc1ccc(O)c(-n2nnc3cc(F)c(-n4c(=O)cc(C(F)(F)F)n(C)c4=O)cc32)c1`
OUT: false

IN: Hi, just wondering whether `CCc1cccc(-n2nnc3cc(F)c(-n4c(=O)cc(C(F)(F)F)n(C)c4=O)cc32)c1` shows GALAP herbicidal rating of 1 or higher.
OUT: true

IN: API: above_or_equal(metric=GALAP herbicidal rating, cutoff=1) for item `COC(=O)COc1ccc(-n2nnc3cc(F)c(-n4c(=O)cc(C(F)(F)F)n(C)c4=O)cc32)c(C)c1`
OUT: true

IN: Textbook exercise: given the entry `CCc1ccc(-n2nnc3cc(F)c(-n4c(=O)cc(C(F)(F)F)n(C)c4=O)cc32)cc1COC` , state whether its GALAP herbicidal rating is greater than or equal to 1.
OUT: true

IN: Please tell me: is the compound `Cc1ccccc1-n1nnc2cc(F)c(-n3c(=O)cc(C(F)(F)F)n(C)c3=O)cc21` at or over 1 in terms of GALAP herbicidal rating?
OUT: false

IN: Does `COc1ccccc1-n1nnc2cc(F)c(-n3c(=O)cc(C(F)(F)F)n(C)c3=O)cc21` have a reported GALAP herbicidal rating of at least 1?
OUT: true

IN: Has `C#CCOC(=O)COc1ccc(C)c(-n2nnc3cc(F)c(-n4c(=O)cc(C(F)(F)F)n(C)c4=O)cc32)c1` a recorded GALAP herbicidal rating greater than or equal to 1?
OUT: false

---

tested on: IPOHE Morningglory, Ivyleaf; assay: Preemergence herbicidal evaluation, IPOHE; assay type: in vivo, Ipomoea hederacea, (L.) Jacq.; set-up: scale not given here; details: preemergence, rate 0.016 kg/ha
For each of the molecules below, state its IPOHE herbicidal rating.
# output: bare number, no unit

Value of measured IPOHE herbicidal rating for the entry `COC(=O)COc1ccc(-n2nnc3cc(F)c(-n4c(=O)cc(C(F)(F)F)n(C)c4=O)cc32)c(C)c1` : 0.0

Value of IPOHE herbicidal rating reported for the molecule `Cc1cc(O)ccc1-n1nnc2cc(F)c(-n3c(=O)cc(C(F)(F)F)n(C)c3=O)cc21` is 0.0

So for `COc1ccc(-n2nnc3cc(F)c(-n4c(=O)cc(C(F)(F)F)n(C)c4=O)cc32)cc1` , the logged IPOHE herbicidal rating turned out to be 0.0

For `COCc1ccccc1-n1nnc2cc(F)c(-n3c(=O)cc(C(F)(F)F)n(C)c3=O)cc21` the molecule record lists IPOHE herbicidal rating as 0.0

For this molecule ( `COc1ccc(C)cc1-n1nnc2cc(F)c(-n3c(=O)cc(C(F)(F)F)n(C)c3=O)cc21` ), measured IPOHE herbicidal rating is 7.5

The reported IPOHE herbicidal rating of the molecule `CCc1ccccc1-n1nnc2cc(F)c(-n3c(=O)cc(C(F)(F)F)n(C)c3=O)cc21` was 0.0

// IPOHE herbicidal rating lookup, molecule = `Cc1ccc(-n2nnc3cc(F)c(-n4c(=O)cc(C(F)(F)F)n(C)c4=O)cc32)cc1C` , result: 0.0

For this molecule ( `Cc1ccc(OCC(=O)O)cc1-n1nnc2cc(F)c(-n3c(=O)cc(C(F)(F)F)n(C)c3=O)cc21` ), measured IPOHE herbicidal rating is 0.0

Query `COc1ccccc1-n1nnc2cc(F)c(-n3c(=O)cc(C(F)(F)F)n(C)c3=O)cc21` yields IPOHE herbicidal rating of 3.0

Quick note, IPOHE herbicidal rating for `CCc1ccc(-n2nnc3cc(F)c(-n4c(=O)cc(C(F)(F)F)n(C)c4=O)cc32)cc1COC` landed at 0.0

For this molecule ( `Cc1ccc(-n2nnc3cc(F)c(-n4c(=O)cc(C(F)(F)F)n(C)c4=O)cc32)cc1` ), measured IPOHE herbicidal rating is 1.0

Entry under test: COC(=O)C(C)Oc1ccc(C)cc1-n1nnc2cc(F)c(-n3c(=O)cc(C(F)(F)F)n(C)c3=O)cc21 (stereo not shown) . Its IPOHE herbicidal rating was 0.0

Looking up `CCc1ccc(-n2nnc3cc(F)c(-n4c(=O)cc(C(F)(F)F)n(C)c4=O)cc32)cc1` , I found its IPOHE herbicidal rating recorded as 0.0

According to the records, this molecule `COc1ccc(Cl)cc1-n1nnc2cc(F)c(-n3c(=O)cc(C(F)(F)F)n(C)c3=O)cc21` displays IPOHE herbicidal rating of 0.0

Lab note: `Cc1ccccc1-n1nnc2cc(F)c(-n3c(=O)cc(C(F)(F)F)n(C)c3=O)cc21` gave IPOHE herbicidal rating of 0.0

IPOHE herbicidal rating reported for this molecule `Cc1ccc(O)cc1-n1nnc2cc(F)c(-n3c(=O)cc(C(F)(F)F)n(C)c3=O)cc21` : 0.0

---

tested on: ECHOG Barnyardgrass; experiment: Preemergence herbicidal evaluation, ECHOG; format: in vivo, Echinochloa crus-galli, (L.) Beau; design: scale not given here; conditions: preemergence, rate 0.032 kg/ha
I'd appreciate it if you could supply ECHCG herbicidal rating values for the items below.
Form: value (number only, do not type unit).

Recorded result, COc1ccc(C)c(-n2nnc3cc(F)c(-n4c(=O)cc(C(F)(F)F)n(C)c4=O)cc32)c1 [Example 22] , ECHCG herbicidal rating: 0.0

ECHCG herbicidal rating recorded for this compound, COc1ccccc1-n1nnc2cc(F)c(-n3c(=O)cc(C(F)(F)F)n(C)c3=O)cc21 [Example 16] , is 9.0

# compound COc1ccc(-n2nnc3cc(F)c(-n4c(=O)cc(C(F)(F)F)n(C)c4=O)cc32)cc1 [Example 27] ; its ECHCG herbicidal rating = 4.0

Reported ECHCG herbicidal rating ( C=CCOc1ccc(-n2nnc3cc(F)c(-n4c(=O)cc(C(F)(F)F)n(C)c4=O)cc32)c(C)c1 [Example 43] ) = 0.0

Item: COc1ccc(Cl)cc1-n1nnc2cc(F)c(-n3c(=O)cc(C(F)(F)F)n(C)c3=O)cc21 [Example 30] | ECHCG herbicidal rating: 5.0

Item: Cc1ccccc1-n1nnc2cc(F)c(-n3c(=O)cc(C(F)(F)F)n(C)c3=O)cc21 [Example 20] | ECHCG herbicidal rating: 0.0

Sample CCc1ccc(-n2nnc3cc(F)c(-n4c(=O)cc(C(F)(F)F)n(C)c4=O)cc32)cc1COC [Example 28] ; ECHCG herbicidal rating observed: 0.0

Just so you know, measured ECHCG herbicidal rating for COC(=O)COc1ccc(C)cc1-n1nnc2cc(F)c(-n3c(=O)cc(C(F)(F)F)n(C)c3=O)cc21 [Example 34] came out at 2.0

---

test system: GALAP Galium; assay: Postemergence herbicidal evaluation, GALAP; format: in vivo, Galium aparine; parameters: scale not given here; settings: 0.008 kg/ha, postemergence spray, rated about two-three weeks after treatment
PROPERTY_NAME: Postemergence herbicidal rating GALAP
Could you respond with only the numeric value?

Entry `Cc1ccc(O)cc1-n1nnc2cc(F)c(-n3c(=O)cc(C(F)(F)F)n(C)c3=O)cc21` ; Postemergence herbicidal rating GALAP = 0.0

Looking up `Cc1ccc(-n2nnc3cc(F)c(-n4c(=O)cc(C(F)(F)F)n(C)c4=O)cc32)cc1C` , I found its Postemergence herbicidal rating GALAP recorded as 0.0

The measured Postemergence herbicidal rating GALAP associated with `C#CCOC(=O)COc1ccc(C)c(-n2nnc3cc(F)c(-n4c(=O)cc(C(F)(F)F)n(C)c4=O)cc32)c1` reads 0.0

Entry under test: `Cc1ccc(O)c(-n2nnc3cc(F)c(-n4c(=O)cc(C(F)(F)F)n(C)c4=O)cc32)c1` . Its Postemergence herbicidal rating GALAP was 0.0

The recorded Postemergence herbicidal rating GALAP for `COc1ccccc1-n1nnc2cc(F)c(-n3c(=O)cc(C(F)(F)F)n(C)c3=O)cc21` is 0.0

Please fill in: Postemergence herbicidal rating GALAP reported for `CCc1cccc(-n2nnc3cc(F)c(-n4c(=O)cc(C(F)(F)F)n(C)c4=O)cc32)c1` = 0.0

Sample `Cc1ccc(-n2nnc3cc(F)c(-n4c(=O)cc(C(F)(F)F)n(C)c4=O)cc32)cc1` ; Postemergence herbicidal rating GALAP observed: 0.0

For this molecule ( `Cc1cc(O)ccc1-n1nnc2cc(F)c(-n3c(=O)cc(C(F)(F)F)n(C)c3=O)cc21` ), measured Postemergence herbicidal rating GALAP is 0.0
